Below: a set of entries, each annotated with reported fraction unbound at 4 h, 0.8 μM.
- ASSAY TEXT: Mouse plasma protein binding assay (Rapid Equilibrium Dialysis)
- Type: in vitro ADME
- CONDITION: mouse, mouse plasma, pH 7.4; Conc. 0.8 μM
READOUT LABEL: fraction unbound at 4 h, 0.8 μM

- Cc1ccc(-c2nc3ccccc3s2)cc1NC(=O)c1cc([N+](=O)[O-])c(N2CCN(C)CC2)cc1Cl: 0.65
- COc1ccc(-c2c(C(F)(F)F)oc3c(CN4CCN(C)CC4)c(O)ccc3c2=O)cc1OC: 0.54

====

- ASSAY TEXT: Single oral dose pharmacokinetic study in mice
- Format: in vivo, mouse
- CONDITION: female, BALB/c, mouse, plasma, po, 50 mg/kg, single oral gavage
READOUT LABEL: Cmax (µM)

* Cc1ccc(-c2nc3ccccc3s2)cc1NC(=O)c1cc([N+](=O)[O-])c(N2CCN(C)CC2)cc1Cl | 6.49
